Would you kindly list MFI for each of these binders?
- Substrate: ICOS (Homo sapiens (Human)) (UniProt Q9Y6W8)
- Sequence (Q9Y6W8 21-199 limits assumed): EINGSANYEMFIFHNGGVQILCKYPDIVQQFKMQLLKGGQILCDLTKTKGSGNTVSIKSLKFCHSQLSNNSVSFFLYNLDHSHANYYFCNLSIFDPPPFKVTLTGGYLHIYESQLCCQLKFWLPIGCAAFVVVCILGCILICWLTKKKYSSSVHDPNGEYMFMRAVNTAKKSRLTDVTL
- assay: flow cytometry, transfected cells
Remember to put the unit after the number in your answer.

Inquiry: # query: MFI of entry ICOSL-Fc N52R/N57W/Q100K (Fc fusion) DTQEKEVRAMVGSDVELSCACPEGSRFDLNDVYVYWQTSESKTVVTYHIPQRSSLEWVDSRYRNRALMSPAGMLRGDFSLRLFNVTPQDEQKFHCLVLSKSLGFQEVLSVEVTLHVAANFSVPVVSAPHSPSQDELTFTCTSINGYPRPNVYWINKTDNSLLDQALQNDTVFLNMRGLYDVVSVLRIARTPSVNIGCCIENVLLQQNLTVGSQTGNDIGERDKITENPVSTGEKNAAT
Reply text: 349000 MFI

Inquiry: Any idea what MFI was measured for ICOSL-Fc N52G/N57V (Fc fusion) DTQEKEVRAMVGSDVELSCACPEGSRFDLNDVYVYWQTSESKTVVTYHIPQGSSLEVVDSRYRNRALMSPAGMLRGDFSLRLFNVTPQDEQKFHCLVLSQSLGFQEVLSVEVTLHVAANFSVPVVSAPHSPSQDELTFTCTSINGYPRPNVYWINKTDNSLLDQALQNDTVFLNMRGLYDVVSVLRIARTPSVNIGCCIENVLLQQNLTVGSQTGNDIGERDKITENPVSTGEKNAAT ?
Reply text: 332000 MFI

Inquiry: # query: MFI of entry ICOSL-Fc N52S/N57Y/Q100V (Fc fusion) DTQEKEVRAMVGSDVELSCACPEGSRFDLNDVYVYWQTSESKTVVTYHIPQSSSLEYVDSRYRNRALMSPAGMLRGDFSLRLFNVTPQDEQKFHCLVLSVSLGFQEVLSVEVTLHVAANFSVPVVSAPHSPSQDELTFTCTSINGYPRPNVYWINKTDNSLLDQALQNDTVFLNMRGLYDVVSVLRIARTPSVNIGCCIENVLLQQNLTVGSQTGNDIGERDKITENPVSTGEKNAAT
Reply text: 219000 MFI
